Target Of Assay: Carbonic anhydrase 2 (Homo sapiens)
pKi by entry:
Give only the number. pKi is defined as minus log10 of concentration in molar units.

Some solved cases for reference:
NS(=O)(=O)c1ccc(/N=C2\NC(=O)/C(=C\c3ccccc3)S2)cc1 : 7.04
CCN1C(=O)/C(=C\c2ccc(Cl)cc2)S/C1=N/c1ccc(S(N)(=O)=O)cc1 : 7.52
NS(=O)(=O)c1ccc(/N=C2\NC(=O)/C(=C3\C(=O)Nc4ccccc43)S2)cc1 : 7.64

Item under review: "COc1ccc(/C=C2/S/C(=N/c3ccc(S(N)(=O)=O)cc3)NC2=O)cc1" . Reported pKi?
7.61

Item under review: "CCN1C(=O)/C(=C\c2ccc(F)cc2)S/C1=N/c1ccc(S(N)(=O)=O)cc1" . Reported pKi?
7.07

Item under review: "CN1C(=O)/C(=C\c2ccccc2)S/C1=N/c1ccc(S(N)(=O)=O)cc1" . Reported pKi?
7.35
